Reported Selectivity values for a set of molecules
Target: Opioid receptors; mu & kappa (Homo sapiens) (UniProt P41145+P35372)
Sequence (P35372 whole entry, looked up): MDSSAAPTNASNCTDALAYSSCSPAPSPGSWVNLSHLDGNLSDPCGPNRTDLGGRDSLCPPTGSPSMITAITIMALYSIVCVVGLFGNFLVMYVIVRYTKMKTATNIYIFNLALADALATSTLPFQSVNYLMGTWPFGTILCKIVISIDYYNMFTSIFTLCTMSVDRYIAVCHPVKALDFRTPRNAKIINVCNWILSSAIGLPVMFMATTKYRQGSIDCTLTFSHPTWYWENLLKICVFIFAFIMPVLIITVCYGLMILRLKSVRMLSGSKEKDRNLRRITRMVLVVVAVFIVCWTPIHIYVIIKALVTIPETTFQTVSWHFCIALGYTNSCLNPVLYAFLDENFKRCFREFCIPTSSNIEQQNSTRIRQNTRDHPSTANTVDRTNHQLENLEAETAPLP
Sequence (P41145 whole entry, looked up): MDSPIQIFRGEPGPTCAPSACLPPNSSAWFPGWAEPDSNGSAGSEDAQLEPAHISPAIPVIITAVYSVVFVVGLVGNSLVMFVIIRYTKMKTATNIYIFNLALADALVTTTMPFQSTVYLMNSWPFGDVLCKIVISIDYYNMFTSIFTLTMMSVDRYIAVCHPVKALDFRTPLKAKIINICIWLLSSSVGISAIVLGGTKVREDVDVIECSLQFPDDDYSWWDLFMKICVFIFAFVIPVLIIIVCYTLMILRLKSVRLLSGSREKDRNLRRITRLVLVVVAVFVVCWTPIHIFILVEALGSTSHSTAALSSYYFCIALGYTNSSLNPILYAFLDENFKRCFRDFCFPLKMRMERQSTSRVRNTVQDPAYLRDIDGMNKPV
Test: Selective inhibitory activity was determined against kappa & mu opioid receptor in chinese Hamster Ovary (CHO) cell membranes

compound structure | assayed target | Selectivity
O=C(CCC(=O)Oc1ccc2c(c1)[C@@]13CCCC[C@H]1[C@@H](C2)N(CC1CC1)CC3)Oc1ccc2c(c1)[C@@]13CCCC[C@H]1[C@@H](C2)N(CC1CC1)CC3 | Opioid receptors; mu & kappa (Homo sapiens) (UniProt P41145+P35372) | 1
O=C(Oc1ccc2c(c1)[C@@]13CCCC[C@H]1[C@@H](C2)N(CC1CCC1)CC3)c1cccc(C(=O)Oc2ccc3c(c2)[C@@]24CCCC[C@H]2[C@@H](C3)N(CC2CCC2)CC4)c1 | Opioid receptors; mu & kappa (Homo sapiens) (UniProt P41145+P35372) | 1
c1cc2c(cc1OCCCCCCCCCCOc1ccc3c(c1)[C@@]14CCCC[C@H]1[C@@H](C3)N(CC1CCC1)CC4)[C@@]13CCCC[C@H]1[C@@H](C2)N(CC1CCC1)CC3 | Opioid receptors; mu & kappa (Homo sapiens) (UniProt P41145+P35372) | 0.5
O=C(CCCCCCCCC(=O)Oc1ccc2c(c1)[C@@]13CCCC[C@H]1[C@@H](C2)N(CC1CC1)CC3)Oc1ccc2c(c1)[C@@]13CCCC[C@H]1[C@@H](C2)N(CC1CC1)CC3 | Opioid receptors; mu & kappa (Homo sapiens) (UniProt P41145+P35372) | 2
O=C(/C=C/C(=O)Oc1ccc2c(c1)[C@@]13CCCC[C@H]1[C@@H](C2)N(CC1CCC1)CC3)Oc1ccc2c(c1)[C@@]13CCCC[C@H]1[C@@H](C2)N(CC1CCC1)CC3 | Opioid receptors; mu & kappa (Homo sapiens) (UniProt P41145+P35372) | 3
O=C(CCCCCCCCC(=O)Oc1ccc2c(c1)[C@@]13CCCC[C@H]1[C@@H](C2)N(CC1CCC1)CC3)Oc1ccc2c(c1)[C@@]13CCCC[C@H]1[C@@H](C2)N(CC1CCC1)CC3 | Opioid receptors; mu & kappa (Homo sapiens) (UniProt P41145+P35372) | 2
c1cc2c(cc1OCCCCOc1ccc3c(c1)[C@@]14CCCC[C@H]1[C@@H](C3)N(CC1CCC1)CC4)[C@@]13CCCC[C@H]1[C@@H](C2)N(CC1CCC1)CC3 | Opioid receptors; mu & kappa (Homo sapiens) (UniProt P41145+P35372) | 2
O=C(CCCC(=O)Oc1ccc2c(c1)[C@@]13CCCC[C@H]1[C@@H](C2)N(CC1CCC1)CC3)Oc1ccc2c(c1)[C@@]13CCCC[C@H]1[C@@H](C2)N(CC1CCC1)CC3 | Opioid receptors; mu & kappa (Homo sapiens) (UniProt P41145+P35372) | 3
O=C(Oc1ccc2c(c1)[C@@]13CCCC[C@H]1[C@@H](C2)N(CC1CCC1)CC3)c1ccc(C(=O)Oc2ccc3c(c2)[C@@]24CCCC[C@H]2[C@@H](C3)N(CC2CCC2)CC4)cc1 | Opioid receptors; mu & kappa (Homo sapiens) (UniProt P41145+P35372) | 1
O=C(CCC(=O)Oc1ccc2c(c1)[C@@]13CCCC[C@H]1[C@@H](C2)N(CC1CCC1)CC3)Oc1ccc2c(c1)[C@@]13CCCC[C@H]1[C@@H](C2)N(CC1CCC1)CC3 | Opioid receptors; mu & kappa (Homo sapiens) (UniProt P41145+P35372) | 2
O=C(CCCCCCCCCCC(=O)Oc1ccc2c(c1)[C@@]13CCCC[C@H]1[C@@H](C2)N(CC1CCC1)CC3)Oc1ccc2c(c1)[C@@]13CCCC[C@H]1[C@@H](C2)N(CC1CCC1)CC3 | Opioid receptors; mu & kappa (Homo sapiens) (UniProt P41145+P35372) | 2

Numbers sourced from ChEMBL document CHEMBL1145905.
